- assay-target: human MDM2 protein (amino acids 2-188) (Homo sapiens (Human), UniProt Q00987)
- Sequence (Q00987 2-188): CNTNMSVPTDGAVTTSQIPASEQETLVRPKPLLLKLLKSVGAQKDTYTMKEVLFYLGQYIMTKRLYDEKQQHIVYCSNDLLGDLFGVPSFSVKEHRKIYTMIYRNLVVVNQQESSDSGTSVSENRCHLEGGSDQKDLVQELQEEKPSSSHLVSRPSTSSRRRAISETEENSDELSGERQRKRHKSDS
- test-summary: TR-FRET assay, p53-MDM2 Assay 2 (modified)
- Format: binding
- condition-details: TR-FRET; 0.1 nM MDM2, 0.1 nM Europium labeled streptavidin, Tecan genios Pro reader; read-out: IC50 p53-MDM2 Assay 2
measured-metric: pIC50
Numbers only, as −log10 of the molar value.

Reference set (3 entries):
compound: COc1nc(N(C)C)ncc1-c1cc2c(n1C(C)C)C(c1ccc(Cl)cc1)N(c1cn(C)c(=O)cc1C)C2=O (stereo not drawn)
measured-metric: pIC50
obs-value: 9.41
//
compound: COc1cn(C)c(=O)cc1-c1cc2c(n1C(C)C)C(c1ccc(Cl)cc1)N(c1cc(Cl)ccc1C)C2=O (stereo not drawn)
measured-metric: pIC50
obs-value: 9.96
//
compound: COc1nc(N(C)C)ncc1-c1cc2c(n1C(C)C)[C@H](c1ccc(Cl)cc1)N(c1c[nH]c(=O)c(Cl)c1)C2=O
measured-metric: pIC50
obs-value: 10.10

Report pIC50 for every entry below.
1. COc1ncc(-c2cc3c(n2C(C)C)C(c2ccc(C#N)cc2)N(c2c(F)c(C)nn2C)C3=O)c(OC)n1 (stereo not drawn)
2. COc1cn(C)c(=O)cc1-c1cc2c(n1C(C)C)C(c1ccc(Cl)cc1)N(c1cn(C)nc1C)C2=O (stereo not drawn)
3. COc1nc(N)ncc1-c1cc2c(n1C(C)C)C(c1ccc(Cl)cc1)N(c1cc(Cl)cn(C)c1=O)C2=O (stereo not drawn)

1: 8.78; 2: 8.25; 3: 9.20

Report pIC50 for every entry below.
1. COC[C@@H](C)n1c(-c2cnc(N)nc2OC)cc2c1[C@H](c1ccc(Cl)cc1)N(c1ccc(F)c(Cl)c1)C2=O
2. COc1nc(N(C)C)ncc1-c1cc2c(n1C(C)C)C(c1ccc(C#N)cc1)N(c1cc(C)nn1C)C2=O (stereo not drawn)
3. COc1nc(N(C)C)ncc1-c1cc2c(n1C(C)C)C(c1ccc(Cl)c(F)c1)N(c1cc(Cl)c[nH]c1=O)C2=O (stereo not drawn)
4. CNC(=O)c1ccc(OC)c(-c2cc3c(n2C(C)C)C(c2ccc(Cl)cc2C)N([C@H]2CC[C@H](O)CC2)C3=O)c1 (stereo partly drawn)
5. COc1ncc(-c2cc3c(n2C(C)C)C(c2ccc(C#N)cc2)N(c2c[nH]c(=O)c(Cl)c2)C3=O)c(OC)n1 (stereo not drawn)
6. COc1nc(N(C)C)ncc1-c1cc2c(n1C(C)C)C(c1ccc(Cl)cc1)N(c1cc(Cl)c[nH]c1=O)C2=O (stereo not drawn)
7. COc1ncc(-c2cc3c(n2C(C)C)[C@H](c2ccc(Cl)cc2)N(c2cc(Cl)ccc2C)C3=O)c(OC)n1

1: 10.11; 2: 9.19; 3: 9.92; 4: 7.87; 5: 9.37; 6: 9.97; 7: 10.19

Report pIC50 for every entry below.
1. COc1ccc(-c2cc3c(n2C(C)C)C(c2ccc(Cl)cc2)N(c2cc(Cl)ccc2C)C3=O)c(OC)n1 (stereo not drawn)
2. CNC(=O)c1ccc(OC)c(-c2cc3c(n2C(C)C)C(c2ccc(Cl)cc2)N(c2cc(Cl)ccc2C)C3=O)c1 (stereo not drawn)
3. COc1ccc(C(=O)NCCS(C)(=O)=O)cc1-c1cc2c(n1C(C)C)C(c1ccc(Cl)cc1)N(c1cc(Cl)ccc1C)C2=O (stereo not drawn)

[9.49, 9.94, 9.94]

Report pIC50 for every entry below.
1. COc1ccc(CC(N)=O)cc1-c1cc2c(n1C(C)C)C(c1ccc(Cl)cc1)N(c1cc(Cl)ccc1C)C2=O (stereo not drawn)
2. COc1nc(N(C)C)ncc1-c1cc2c(n1C(C)C)[C@H](c1ccc(C#N)cc1)N(c1cc(Cl)c(=O)n(C)c1)C2=O
3. [2H]C([2H])([2H])Oc1ncc(-c2cc3c(n2C(C)C)[C@@H](c2ccc(Cl)cc2)N(c2cc(Cl)c(=O)n(C)c2)C3=O)c(OC([2H])([2H])[2H])n1
4. CNC(=O)Cc1cc(-c2cc3c(n2C(C)C)C(c2ccc(C#N)cc2)N(c2cccc(Cl)c2F)C3=O)c(OC)cn1 (stereo not drawn)
5. COc1nc(N(C)C)ncc1-c1cc2c(n1C(C)C)C(c1ccc(Cl)cc1)N(c1cc(C)nn1C)C2=O (stereo not drawn)

1: 9.94; 2: 10.16; 3: 7.55; 4: 9.48; 5: 9.29
